Provenance of the data: ChEMBL document CHEMBL3046189

Items are presented alongside their recorded Ki.
Target: Histidinol dehydrogenase, chloroplastic (Brassica oleracea var. capitata, UniProt P24226)
Assay: Inhibition of Brassica oleracea (cabbage) histidinol dehydrogenase pre-incubated for 10 min before substrate histidinol addition by spectrophotometry
Numeric only. Scale: nM

>  <smiles_record>
N[C@@H](Cc1c[nH]cn1)C(=O)Cc1ccccc1

>  <reported>
7.6

$$$$
>  <smiles_record>
N[C@@H](Cc1c[nH]cn1)C(=O)Cc1ccc(Br)cc1

>  <reported>
4.4

$$$$
>  <smiles_record>
N[C@@H](Cc1c[nH]cn1)C(=O)Cc1ccc(-c2ccccc2)cc1

>  <reported>
2.9

$$$$

Item under review: "Nc1cccc(CC(=O)[C@@H](N)Cc2c[nH]cn2)c1" . Reported Ki?
7.4

---

Molecular target: Histidinol dehydrogenase (Escherichia coli (strain K12), UniProt P06988)
Sequence (P06988 whole entry): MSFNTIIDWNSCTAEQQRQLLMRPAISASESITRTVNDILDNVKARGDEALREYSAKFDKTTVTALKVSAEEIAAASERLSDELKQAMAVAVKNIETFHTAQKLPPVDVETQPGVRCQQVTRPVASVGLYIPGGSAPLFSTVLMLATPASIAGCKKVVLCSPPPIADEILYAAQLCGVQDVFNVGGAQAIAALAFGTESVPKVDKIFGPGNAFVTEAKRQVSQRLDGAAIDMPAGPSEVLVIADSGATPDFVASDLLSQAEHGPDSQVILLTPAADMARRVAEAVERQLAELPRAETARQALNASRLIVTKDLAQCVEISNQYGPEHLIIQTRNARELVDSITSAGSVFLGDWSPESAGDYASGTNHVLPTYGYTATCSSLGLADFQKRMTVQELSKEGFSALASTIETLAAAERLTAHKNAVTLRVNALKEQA
Experiment: Binding affinity to Escherichia coli histidinol dehydrogenase
property_label: pKd
Conceptually, pKd converts a concentration in mol/L into minus its log10.

Item under review: "N[C@H](C=O)Cc1c[nH]cn1" . Reported pKd?
8.85

---

Molecular target: Histidinol dehydrogenase, chloroplastic (Brassica oleracea var. capitata)
Sequence (P24226 whole entry): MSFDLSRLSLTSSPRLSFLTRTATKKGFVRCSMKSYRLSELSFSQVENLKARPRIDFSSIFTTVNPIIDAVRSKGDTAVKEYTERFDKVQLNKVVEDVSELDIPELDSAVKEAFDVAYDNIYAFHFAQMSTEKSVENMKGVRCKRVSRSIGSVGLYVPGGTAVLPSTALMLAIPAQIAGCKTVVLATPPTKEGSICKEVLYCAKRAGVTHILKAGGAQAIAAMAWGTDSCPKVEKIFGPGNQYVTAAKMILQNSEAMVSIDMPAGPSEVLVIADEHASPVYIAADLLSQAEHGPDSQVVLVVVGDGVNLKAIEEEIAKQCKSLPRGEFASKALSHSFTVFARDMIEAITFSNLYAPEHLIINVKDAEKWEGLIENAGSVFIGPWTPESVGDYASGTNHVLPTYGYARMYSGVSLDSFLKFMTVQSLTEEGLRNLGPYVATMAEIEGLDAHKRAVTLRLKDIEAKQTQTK
property_label: pIC50
Conceptually, pIC50 converts a concentration in mol/L into minus its log10.

Worked set:
>  <smiles_record>
N[C@@H](Cc1c[nH]cn1)C(=O)Cc1cccc(Br)c1

>  <pIC50>
7.00

$$$$
>  <smiles_record>
Nc1ccc(CC(=O)[C@@H](N)Cc2c[nH]cn2)cc1

>  <pIC50>
6.30

$$$$
>  <smiles_record>
N[C@@H](Cc1c[nH]cn1)C(=O)Cc1ccccc1Br

>  <pIC50>
6.00

$$$$
>  <smiles_record>
N[C@@H](Cc1c[nH]cn1)C(=O)Cc1ccc(Cl)cc1

>  <pIC50>
6.52

$$$$
>  <smiles_record>
Nc1cc(CC(=O)[C@@H](N)Cc2c[nH]cn2)ccc1Br

>  <pIC50>
5.10

$$$$
>  <smiles_record>
N[C@@H](Cc1c[nH]cn1)C(=O)Cc1ccc(Br)cc1

>  <pIC50>
7.40

$$$$
>  <smiles_record>
N[C@@H](Cc1c[nH]cn1)C(=O)Cc1ccccc1

>  <pIC50>
7.00

$$$$
>  <smiles_record>
N[C@@H](Cc1c[nH]cn1)C(=O)Cc1cccc(O)c1

>  <pIC50>
6.52

$$$$
>  <smiles_record>
Nc1cccc(CC(=O)[C@@H](N)Cc2c[nH]cn2)c1

>  <pIC50>
7.30

$$$$
>  <smiles_record>
N[C@@H](Cc1c[nH]cn1)C(=O)Cc1ccc(Br)c(Br)c1

>  <pIC50>
7.30

$$$$

Could you now consider this next compound?
Item under review: "COc1ccc(CC(=O)[C@@H](N)Cc2c[nH]cn2)cc1" . Reported pIC50?
6.00
